# System: Acinetobacter baumannii ATCC17961
# experimental-details: Antimicrobial susceptibility testing: 90% growth inhibitory concentration (IC90) determination in Iso-Sensitest broth, OD600 growth
# Type: cell-based
# applied-conditions: Acinetobacter baumannii, ATCC17961, 16 h, strain ATCC 17961, OD600 growth over 16 h, read-out: A. baumannii ATCC 17961 IC90
Where a name gives a salt, the structure may show the parent alone.
For each of the molecules below, state its IC90.
Field format: number, assumed µM, no unit text.

Let me check: `CNC(=O)c1ccc(Nc2nccn3c(-c4cn(CCCC#N)nc4C(F)(F)F)cnc23)cc1Cl` , system Acinetobacter baumannii ATCC17961, measured IC90 is 0.303

Let me check: Cc1cc(Nc2nccn3c(-c4cn(CC#N)nc4C(F)(F)F)cnc23)ccc1S(C)(=O)=NCCCN (stereo not shown) , system Acinetobacter baumannii ATCC17961, measured IC90 is 0.179

Let me check: CCc1cc(Nc2nccn3c(-c4cn(CC#N)nc4C(F)(F)F)cnc23)ccc1C(=O)NCC(=O)NCC1CCCN1 (stereo not shown) , system Acinetobacter baumannii ATCC17961, measured IC90 is 0.402

Let me check: `Cc1cc(Nc2nccn3c(-c4cn(CCF)nc4C(F)(F)F)cnc23)cc(F)c1C(=O)N[C@H](C)CN` , system Acinetobacter baumannii ATCC17961, measured IC90 is 0.49

Let me check: `Cc1cc(Nc2nccn3c(-c4c[nH]nc4C(F)(F)F)cnc23)ccc1C(=O)N1CCNCC1` , system Acinetobacter baumannii ATCC17961, measured IC90 is 1.84

Let me check: `C[C@@H](N)C(=O)N1CCN(C(=O)c2ccc(Nc3nccn4c(-c5cn(CC#N)nc5C(F)(F)F)cnc34)cc2Cl)CC1` , system Acinetobacter baumannii ATCC17961, measured IC90 is 0.197

Let me check: NCCOCCNC(=O)c1ccc(Nc2nccn3c(-c4cn(CC5CC5)nc4C(F)(F)F)cnc23)cc1F [Example 811, hydrochloride] , system Acinetobacter baumannii ATCC17961, measured IC90 is 0.23

* * *

# System: Acinetobacter baumannii ATCC17961
# experimental-details: Antimicrobial susceptibility testing: 90% growth inhibitory concentration (IC90) determination in Iso-Sensitest broth, OD600 growth
# Type: cell-based
# applied-conditions: Acinetobacter baumannii, ATCC17961, 16 h, strain ATCC 17961, OD600 growth over 16 h, read-out: A. baumannii ATCC 17961 IC90
Counter-ions that a name gives are not always drawn.
endpoint-name: IC90 (nM)
Field format: number, assumed nM, no unit text.

Note to self: IC90 recorded for CCc1cc(Nc2nccn3c(-c4cn(CC(F)F)nc4C(F)F)cnc23)ccc1C(=O)N1CCN(C(=O)[C@H](C)N)CC1 [Example 775] was 988

Note to self: IC90 recorded for O=C(CN1CCN(C(=O)c2ccc(Nc3nccn4c(-c5cn(CC(F)F)nc5C(F)(F)F)cnc34)cc2Cl)CC1)N[C@@H]1CCNC1 [Example 601] was 422

Note to self: IC90 recorded for N#CCn1cc(-c2cnc3c(Nc4ccc(C(=O)N5CCN(C(=O)[C@@H]6CCNC6)CC5)c(Cl)c4)nccn23)c(C(F)(F)F)n1 [Example 191] was 276

Note to self: IC90 recorded for Cc1cc(Nc2nccn3c(-c4cn(CCF)nc4C(F)(F)F)cnc23)cc(F)c1C(=O)N1CCN(C(=O)[C@H]2CC[C@H](O)N2)CC1 [Example 714] was 422

Note to self: IC90 recorded for N#CCn1cc(-c2cnc3c(Nc4ccc(C(=O)N5CCN(C(=O)N[C@H]6C[C@@H](N)C6)CC5)c(Cl)c4)nccn23)c(C(F)(F)F)n1 [Example 584] was 257

Note to self: IC90 recorded for Cc1cc(Nc2nccn3c(-c4cn(CC#N)nc4C(F)(F)F)cnc23)ccc1C(=O)NCC(=O)N1CC[C@@H](N)C1 [Example 686] was 343

Note to self: IC90 recorded for C#CCn1cc(-c2cnc3c(Nc4cc(C)c(C(=O)N5CCNCC5)c(F)c4)nccn23)c(C(F)(F)F)n1 [Example 67] was 413

Note to self: IC90 recorded for CCc1cc(Nc2nccn3c(-c4cn(COC)nc4C(F)F)cnc23)ccc1C(=O)N1CCN(C(=O)CN)CC1 [Example 771] was 953

Note to self: IC90 recorded for CCc1cc(Nc2nccn3c(-c4cn(CCF)nc4C(F)(F)F)cnc23)ccc1C(=O)N1CCN(C(=O)C2CCNCC2)CC1 [Example 71] was 593

Note to self: IC90 recorded for NCCCC(=O)NCCCNC(=O)c1ccc(Nc2nccn3c(-c4c[nH]nc4C(F)(F)F)cnc23)cc1Cl [Example 344, formate] was 572

Note to self: IC90 recorded for CCc1cc(Nc2nccn3c(-c4cn(CC#N)nc4C(F)(F)F)cnc23)ccc1C(=O)NCCNC(=O)[C@@H]1CCCN1 [Example 3] was 160

Note to self: IC90 recorded for N#CCn1cc(-c2cnc3c(Nc4ccc(C(=O)N5CCN(C(=O)[C@@H]6CC[C@H](N)C6)CC5)c(Cl)c4)nccn23)c(C(F)(F)F)n1 [Example 194, formate] was 274

Note to self: IC90 recorded for CCc1cc(Nc2nccn3c(-c4cn(CC#N)nc4C(F)(F)F)cnc23)ccc1C(=O)NC [Example 341] was 223

Note to self: IC90 recorded for CCc1cc(Nc2nccn3c(-c4cn(CC(F)F)nc4C(F)(F)F)cnc23)ccc1C(=O)NCCOC[C@@H](C)N [Example 151] was 204

Note to self: IC90 recorded for CCc1cc(Nc2nccn3c(-c4c[nH]nc4C(F)(F)F)cnc23)ccc1C(=O)NCCCNC(=O)[C@@H]1CCCN1 [Example 634] was 218

Note to self: IC90 recorded for NCCNC(=O)CNC(=O)c1ccc(Nc2nccn3c(-c4cn(CCF)nc4C(F)(F)F)cnc23)cc1Cl [Example 8, formate] was 484

Note to self: IC90 recorded for CCc1cc(Nc2nccn3c(-c4cn(Cc5ccncn5)nc4C(F)(F)F)cnc23)ccc1C(=O)NC [Example 282] was 701

Note to self: IC90 recorded for CCc1cc(Nc2nccn3c(-c4cn(CC(F)F)nc4C(F)(F)F)cnc23)ccc1C(=O)NCCCNC(=O)[C@@H]1C[C@@H](O)CN1 [Example 727] was 465

Note to self: IC90 recorded for N#CCn1cc(-c2cnc3c(Nc4ccc(C(=O)N5CCN(C(=O)[C@H]6[C@@H]7CNC[C@@H]76)CC5)c(Cl)c4)nccn23)c(C(F)(F)F)n1 [Example 481] was 117

Note to self: IC90 recorded for Cc1cc(Nc2nccn3c(-c4cn(CC(F)F)nc4C(F)(F)F)cnc23)cc(F)c1C(=O)N[C@H](C)CN [Example 704] was 386

Note to self: IC90 recorded for CCc1cc(Nc2nccn3c(-c4c[nH]nc4C(F)(F)F)cnc23)ccc1C(=O)NCCCNC(=O)N1CC[C@@H](N)C1 [Example 631] was 209

Note to self: IC90 recorded for CCc1cc(Nc2nccn3c(-c4cn(C)nc4C(F)(F)F)cnc23)ccc1C(=O)NCCOCCN [Example 1] was 623

Note to self: IC90 recorded for CCc1cc(Nc2nccn3c(-c4cn(CC(F)F)nc4C(F)F)cnc23)ccc1C(=O)N1CCN(C(=O)C2CCNCC2)CC1 [Example 742] was 530

Note to self: IC90 recorded for Cc1cc(Nc2nccn3c(-c4cn(CC#N)nc4C(F)(F)F)cnc23)ccc1C(=O)N[C@H](C)C(=O)N[C@@H]1CCNC1 [Example 746] was 581

Note to self: IC90 recorded for N[C@@H]1CCN(C(=O)CNC(=O)c2ccc(Nc3nccn4c(-c5c[nH]nc5C(F)(F)F)cnc34)cc2Cl)C1 [Example 137] was 1860

Note to self: IC90 recorded for NCCNC(=O)CNC(=O)c1ccc(Nc2nccn3c(-c4c[nH]nc4C(F)(F)F)cnc23)cc1Cl [Example 166] was 4480
